- test_details: Displacement of [3H]epibatidine from rat cerebral cortex alpha4beta2* nAChR incubated for 4 hrs by liquid scintillation assay
- Assay type: tissue-based
value_type: Ki (nM)
Kindly answer with a numeric value in nM, unit omitted.

Quick one: Ki for Fc1ncc(C2CC3CCC2N3)cc1-c1ccc(C(F)(F)F)cc1 (racemic) ?
0.44

Quick one: Ki for NC(=O)c1ccc(-c2cc(C3CC4CCC3N4)cnc2F)cc1 (racemic) ?
0.12

Quick one: Ki for O=S(=O)(c1ccc(-c2cc(C3CC4CCC3N4)cnc2F)cc1)C(F)(F)F (racemic) ?
0.03

Quick one: Ki for O=[N+]([O-])c1ccc(-c2cc(C3CC4CCC3N4)cnc2F)cc1 (racemic) ?
0.009

Quick one: Ki for NS(=O)(=O)c1ccc(-c2cc(C3CC4CCC3N4)cnc2F)cc1 (racemic) ?
0.94

Quick one: Ki for CS(=O)(=O)c1ccc(-c2cc(C3CC4CCC3N4)cnc2F)cc1 (racemic) ?
0.17

Quick one: Ki for N#Cc1ccc(-c2cc(C3CC4CCC3N4)cnc2F)cc1 (racemic) ?
0.19

---

- assayed_target: Neuronal acetylcholine receptor subunit alpha-7 (Rattus norvegicus)
- test_details: Agonist activity at rat alpha7 nAChR expressed in Xenopus laevis oocytes at 100 uM after 2 to 6 days by two electrode voltage clamp assay relative to acetylcholine
- Assay type: functional, cell-based
- conditions: Oocyte
// assign Met if %max falls strictly below 6%, else Not met (ties count as Not met)

Does the reported %max of Fc1ncc(C2CC3CCC2N3)cc1-c1ccc(C(F)(F)F)cc1 (racemic) stay below 6%?
Met

Does the reported %max of O=S(=O)(c1ccc(-c2cc(C3CC4CCC3N4)cnc2F)cc1)C(F)(F)F (racemic) stay below 6%?
Met

Does the reported %max of N#Cc1ccc(-c2cc(C3CC4CCC3N4)cnc2F)cc1 (racemic) stay below 6%?
Met

Does the reported %max of Clc1ccc([C@H]2CC3CCC2N3)cn1 (mixture of isomers) stay below 6%?
Not met

Does the reported %max of CS(=O)(=O)c1ccc(-c2cc(C3CC4CCC3N4)cnc2F)cc1 (racemic) stay below 6%?
Met

Does the reported %max of c1cnc2cc3c(cc2n1)[C@@H]1CNC[C@H]3C1 [VARENICLINE] stay below 6%?
Not met

Does the reported %max of NC(=O)c1ccc(-c2cc(C3CC4CCC3N4)cnc2F)cc1 (racemic) stay below 6%?
Not met

Does the reported %max of NS(=O)(=O)c1ccc(-c2cc(C3CC4CCC3N4)cnc2F)cc1 (racemic) stay below 6%?
Met

---

- assayed_target: Neuronal acetylcholine receptor; alpha3/beta4 (Rattus norvegicus, UniProt P04757+P12392)
- Sequence (P04757 whole entry): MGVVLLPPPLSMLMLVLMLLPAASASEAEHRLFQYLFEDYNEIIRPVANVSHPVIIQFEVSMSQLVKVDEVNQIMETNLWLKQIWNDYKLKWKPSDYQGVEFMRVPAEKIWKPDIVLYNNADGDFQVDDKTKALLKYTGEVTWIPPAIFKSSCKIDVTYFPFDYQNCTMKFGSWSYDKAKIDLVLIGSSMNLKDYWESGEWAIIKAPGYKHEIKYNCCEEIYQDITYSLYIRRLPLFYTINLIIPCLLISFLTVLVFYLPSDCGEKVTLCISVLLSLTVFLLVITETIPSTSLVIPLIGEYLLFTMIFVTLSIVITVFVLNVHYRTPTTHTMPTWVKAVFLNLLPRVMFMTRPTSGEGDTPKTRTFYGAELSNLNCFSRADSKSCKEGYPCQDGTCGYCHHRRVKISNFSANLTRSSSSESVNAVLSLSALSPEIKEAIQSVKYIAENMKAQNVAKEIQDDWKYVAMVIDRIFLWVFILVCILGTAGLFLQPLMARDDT
- Sequence (P12392 whole entry): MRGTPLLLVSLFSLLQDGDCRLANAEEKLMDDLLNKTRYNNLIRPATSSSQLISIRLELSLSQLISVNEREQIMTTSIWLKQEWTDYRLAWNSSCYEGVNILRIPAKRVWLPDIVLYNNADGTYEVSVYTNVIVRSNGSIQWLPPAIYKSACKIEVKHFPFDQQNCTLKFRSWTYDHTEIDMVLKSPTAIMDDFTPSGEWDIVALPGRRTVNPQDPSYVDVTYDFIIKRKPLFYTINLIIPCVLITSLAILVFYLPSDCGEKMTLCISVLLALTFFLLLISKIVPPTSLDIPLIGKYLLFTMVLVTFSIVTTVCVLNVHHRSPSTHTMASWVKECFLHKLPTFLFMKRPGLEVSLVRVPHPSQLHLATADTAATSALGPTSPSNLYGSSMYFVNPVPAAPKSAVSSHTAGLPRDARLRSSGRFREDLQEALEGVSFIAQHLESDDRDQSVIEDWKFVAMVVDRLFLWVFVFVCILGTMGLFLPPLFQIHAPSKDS
- test_details: Antagonist activity at rat alpha3beta4 nAChR expressed in Xenopus laevis oocytes assessed as inhibition of acetylcholine-induced response after 2 to 6 days by two electrode voltage clamp assay
Provide the reported IC50 of each item.
Kindly answer with a numeric value in µM, unit omitted.

Quick one: IC50 for CS(=O)(=O)c1ccc(-c2cc(C3CC4CCC3N4)cnc2F)cc1 (racemic) ?
11

Quick one: IC50 for O=[N+]([O-])c1ccc(-c2cc(C3CC4CCC3N4)cnc2F)cc1 (racemic) ?
7.9

Quick one: IC50 for Fc1ncc(C2CC3CCC2N3)cc1-c1ccc(C(F)(F)F)cc1 (racemic) ?
5

Quick one: IC50 for N#Cc1ccc(-c2cc(C3CC4CCC3N4)cnc2F)cc1 (racemic) ?
7

Quick one: IC50 for NC(=O)c1ccc(-c2cc(C3CC4CCC3N4)cnc2F)cc1 (racemic) ?
35
